These measurements were taken from patent US12391685B2.

Biological target: SpCas9 (Streptococcus pyogenes serotype M1, UniProt Q99ZW2)
Sequence (Q99ZW2 whole entry): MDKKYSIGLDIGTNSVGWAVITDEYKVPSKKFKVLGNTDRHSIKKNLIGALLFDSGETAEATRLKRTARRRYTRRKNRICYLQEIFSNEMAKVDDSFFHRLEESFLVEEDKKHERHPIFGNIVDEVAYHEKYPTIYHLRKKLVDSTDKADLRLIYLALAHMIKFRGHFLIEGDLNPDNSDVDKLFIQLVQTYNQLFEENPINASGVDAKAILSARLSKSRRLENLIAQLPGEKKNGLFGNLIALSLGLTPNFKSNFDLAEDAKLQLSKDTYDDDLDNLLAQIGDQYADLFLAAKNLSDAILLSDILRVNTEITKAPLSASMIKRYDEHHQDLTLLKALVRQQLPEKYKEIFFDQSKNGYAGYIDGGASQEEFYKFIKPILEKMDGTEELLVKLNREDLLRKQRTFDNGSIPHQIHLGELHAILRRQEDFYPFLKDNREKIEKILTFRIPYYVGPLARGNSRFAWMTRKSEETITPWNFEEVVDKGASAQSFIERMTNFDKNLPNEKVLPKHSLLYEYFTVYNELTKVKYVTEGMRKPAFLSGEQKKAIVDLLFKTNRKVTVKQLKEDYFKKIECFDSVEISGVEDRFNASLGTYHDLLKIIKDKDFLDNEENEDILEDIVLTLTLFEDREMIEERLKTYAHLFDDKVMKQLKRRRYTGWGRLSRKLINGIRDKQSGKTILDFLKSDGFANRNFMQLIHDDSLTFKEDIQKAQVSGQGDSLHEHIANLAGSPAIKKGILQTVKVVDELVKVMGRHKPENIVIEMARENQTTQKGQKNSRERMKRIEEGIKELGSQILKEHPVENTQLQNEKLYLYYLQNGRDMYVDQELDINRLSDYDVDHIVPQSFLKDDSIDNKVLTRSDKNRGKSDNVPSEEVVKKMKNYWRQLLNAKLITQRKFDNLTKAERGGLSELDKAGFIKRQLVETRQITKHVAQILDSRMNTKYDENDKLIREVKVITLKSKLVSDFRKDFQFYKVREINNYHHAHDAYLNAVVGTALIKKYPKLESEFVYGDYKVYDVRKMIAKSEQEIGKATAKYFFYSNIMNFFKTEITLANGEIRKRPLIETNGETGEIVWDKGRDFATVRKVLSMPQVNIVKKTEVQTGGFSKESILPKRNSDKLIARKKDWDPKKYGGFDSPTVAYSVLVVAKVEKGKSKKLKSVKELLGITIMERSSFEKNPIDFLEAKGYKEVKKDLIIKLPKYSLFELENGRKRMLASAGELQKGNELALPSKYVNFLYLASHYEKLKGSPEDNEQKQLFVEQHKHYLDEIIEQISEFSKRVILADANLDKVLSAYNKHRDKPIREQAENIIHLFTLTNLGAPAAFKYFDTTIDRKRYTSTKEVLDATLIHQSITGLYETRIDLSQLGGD
Assay: eGFP-disruption assay in U2OS.eGFP.PEST cells
Type: cell-based, S. pyogenes
Parameters: host or cells: U2OS.eGFP.PEST
Settings: screen of structural analogs of BRD7087; 15 μM compound, 24 h, U2OS.eGFP.PEST cells
Procedure: SpCas9 nuclease activity in eGFP-disruption assay. […] Images were analyzed using MetaXpress software and data were plotted using GraphPad Prism 6. The Z′-value was calculated using the equation (1), where σ1 and σ2 are the standard deviations of DMSO control and SpCas9:gRNA control respectively. μ1 and μ2 are the mean % GFP^− cell population for DMSO control and SpCas9:gRNA control, respectively.
We begin with a simple list: items and their reported Inhibition activity Rep 1.
quantity_kind: Inhibition activity Rep 1

[[record]]
structure_as_smiles = "COc1ccc(C#Cc2ccc3c(c2)[C@H]2[C@H](CCN2C(=O)c2ccccc2F)[C@H](CO)N3C)cc1"
quantity_kind = "Inhibition activity Rep 1"
measured_value = 55.8

[[record]]
structure_as_smiles = "CN1c2ccc(-c3cccc(C#N)c3)cc2[C@H]2[C@H](CCN2C(=O)C2CCCCC2)[C@H]1CO"
quantity_kind = "Inhibition activity Rep 1"
measured_value = 49.1

[[record]]
structure_as_smiles = "CN1c2ccc(-c3ccccc3F)cc2[C@H]2[C@H](CCN2C(=O)NC2CCCCC2)[C@H]1CO"
quantity_kind = "Inhibition activity Rep 1"
measured_value = 54.2

[[record]]
structure_as_smiles = "CN1c2ccc(C#Cc3cccnc3)cc2[C@@H]2[C@@H](CCN2C(=O)c2cccc(F)c2)[C@@H]1CO"
quantity_kind = "Inhibition activity Rep 1"
measured_value = 69.6

[[record]]
structure_as_smiles = "CCC(=O)N1CC[C@H]2[C@@H]1c1cc(C#Cc3ccccc3OC)ccc1N(C)[C@H]2CO"
quantity_kind = "Inhibition activity Rep 1"
measured_value = 59.8

[[record]]
structure_as_smiles = "COc1ccc(S(=O)(=O)N2CC[C@H]3[C@@H](CO)N(C)c4ccc(C#Cc5ccccc5OC)cc4[C@H]32)cc1"
quantity_kind = "Inhibition activity Rep 1"
measured_value = 46.7

[[record]]
structure_as_smiles = "O=S(=O)(c1cccc(F)c1)N1CC[C@@H]2[C@H]1c1cc(C#Cc3ccccc3F)ccc1N[C@@H]2CO"
quantity_kind = "Inhibition activity Rep 1"
measured_value = 56.1


====

target: SpCas9 (Streptococcus pyogenes serotype M1, UniProt Q99ZW2); test: eGFP-disruption assay in U2OS.eGFP.PEST cells; format: cell-based, S. pyogenes; set-up: host or cells: U2OS.eGFP.PEST; settings: screen of structural analogs of BRD7087; 15 μM compound, 24 h, U2OS.eGFP.PEST cells
We begin with a simple list: items and their reported Average Inhibition activity.
quantity_kind: Average Inhibition activity

[[record]]
structure_as_smiles = "CCC(=O)N1CC[C@@H]2[C@H]1c1cc(C#Cc3ccc(F)cc3)ccc1N[C@@H]2CO"
measured_value = 56.1

[[record]]
structure_as_smiles = "COc1cccc(-c2ccc3c(c2)[C@@H]2[C@@H](CCN2C(=O)c2cnccn2)[C@@H](CO)N3)c1"
measured_value = 58.8

[[record]]
structure_as_smiles = "COc1ccccc1CN1CC[C@@H]2[C@H]1c1cc(C#Cc3ccccc3)ccc1N[C@@H]2CO"
measured_value = 49.5

[[record]]
structure_as_smiles = "COc1ccccc1C#Cc1ccc2c(c1)[C@H]1NCC[C@H]1[C@@H](CO)N2"
measured_value = 68.1

[[record]]
structure_as_smiles = "O=C(c1ccc(F)cc1)N1CC[C@@H]2[C@H]1c1cc(C#Cc3ccccc3F)ccc1N[C@@H]2CO"
measured_value = 51.1

[[record]]
structure_as_smiles = "COc1cccc(S(=O)(=O)N2CC[C@H]3[C@@H](CO)N(C)c4ccc(C#Cc5cccnc5)cc4[C@H]32)c1"
measured_value = 55.1

[[record]]
structure_as_smiles = "COc1ccccc1C#Cc1ccc2c(c1)[C@H]1[C@H](CCN1C(=O)c1cccc(F)c1)[C@H](CO)N2"
measured_value = 45.7

[[record]]
structure_as_smiles = "COc1cccc(S(=O)(=O)N2CC[C@@H]3[C@H]2c2cc(C#Cc4cccnc4)ccc2N(C)[C@H]3CO)c1"
measured_value = 51.2

